- ASSAYED SYSTEM: CYP2A6 (Homo sapiens)
- Sequence (P11509 whole entry): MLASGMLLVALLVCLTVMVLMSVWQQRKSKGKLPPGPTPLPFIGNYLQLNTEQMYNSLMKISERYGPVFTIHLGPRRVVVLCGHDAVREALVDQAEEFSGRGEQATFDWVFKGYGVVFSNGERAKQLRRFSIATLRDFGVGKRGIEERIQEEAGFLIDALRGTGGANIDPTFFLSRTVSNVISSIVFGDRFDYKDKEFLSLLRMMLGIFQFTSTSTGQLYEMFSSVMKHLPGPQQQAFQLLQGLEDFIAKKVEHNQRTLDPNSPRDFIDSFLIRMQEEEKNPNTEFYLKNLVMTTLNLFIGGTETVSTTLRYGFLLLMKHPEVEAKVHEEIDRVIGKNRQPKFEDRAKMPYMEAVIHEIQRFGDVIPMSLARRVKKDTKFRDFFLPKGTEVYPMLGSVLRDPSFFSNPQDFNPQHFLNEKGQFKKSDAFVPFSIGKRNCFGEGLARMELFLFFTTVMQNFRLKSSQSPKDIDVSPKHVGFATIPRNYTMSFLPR
- PROTOCOL DETAILS: Inhibitory activity of 200 uM SPP100 on 34 Pmoles of cDNA-derived CYP2A6 enzyme in microsome prepared from human lymphoblastoid cell line
- Type: ADME, microsomes
- Parameters: conc 200 uM, interact cpd conc 3 uM
- MEASUREMENT SETUP: probe coumarine
METRIC NAME: inhibition at 200 µM (%)
Numbers only, in %.

Qu. What measured inhibition at 200 µM goes with COCCCOc1cc(C[C@@H](C[C@H](N)[C@@H](O)C[C@H](C(=O)NCC(C)(C)C(N)=O)C(C)C)C(C)C)ccc1OC ?
Ans. 10.5

* * *

- PROTOCOL DETAILS: Cmax (0-96h) of unlabeled aliskiren hemifumarate following oral administration of aliskiren hemifumarate at 100 mg.Kg-1 level in rat
- Type: ADME, organism-based
- MEASUREMENT SETUP: Albino HAN:WIST, plasma
METRIC NAME: Cmax (nM)
Numbers only, in nM.

Qu. What measured Cmax goes with COCCCOc1cc(C[C@@H](C[C@H](N)[C@@H](O)C[C@H](C(=O)NCC(C)(C)C(N)=O)C(C)C)C(C)C)ccc1OC.COCCCOc1cc(C[C@@H](C[C@H](N)[C@@H](O)C[C@H](C(=O)NCC(C)(C)C(N)=O)C(C)C)C(C)C)ccc1OC.O=C(O)/C=C/C(=O)O [ALISKIREN FUMARATE] ?
Ans. 270

* * *

- PROTOCOL DETAILS: AUC of aliskiren hemifumarate following 8 day once-daily dosing of SPP100B oral solution at 40 mg level studied on day 8 in men
- Assay type: ADME, organism-based
- MEASUREMENT SETUP: male, human, plasma
METRIC NAME: AUC at 192 h (ng·h/mL)
Numbers only, in ng·h/mL.

Qu. What measured AUC at 192 h goes with COCCCOc1cc(C[C@@H](C[C@H](N)[C@@H](O)C[C@H](C(=O)NCC(C)(C)C(N)=O)C(C)C)C(C)C)ccc1OC.COCCCOc1cc(C[C@@H](C[C@H](N)[C@@H](O)C[C@H](C(=O)NCC(C)(C)C(N)=O)C(C)C)C(C)C)ccc1OC.O=C(O)/C=C/C(=O)O [ALISKIREN FUMARATE] ?
Ans. 46.7

* * *

- PROTOCOL DETAILS: Tmax of aliskiren hemifumarate following 4 week oral dietary dosing of aliskiren hemifumarate at 1000 mg.Kg-1 level in male mouse
- Assay type: ADME, organism-based
- MEASUREMENT SETUP: CB6F1-TGrasH2, mouse, in vivo
METRIC NAME: Tmax (h)
Answers are plain numbers, in h.

Qu. What measured Tmax goes with COCCCOc1cc(C[C@@H](C[C@H](N)[C@@H](O)C[C@H](C(=O)NCC(C)(C)C(N)=O)C(C)C)C(C)C)ccc1OC.COCCCOc1cc(C[C@@H](C[C@H](N)[C@@H](O)C[C@H](C(=O)NCC(C)(C)C(N)=O)C(C)C)C(C)C)ccc1OC.O=C(O)/C=C/C(=O)O [ALISKIREN FUMARATE] ?
Ans. 3

* * *

- PROTOCOL DETAILS: AUC of aliskiren hemifumarate following single dosing of SPP100B oral solution at 640 mg level studied on day 1 in men
- Format: ADME, organism-based
- MEASUREMENT SETUP: male, human, plasma
METRIC NAME: AUC (ng·h/mL)
Answers are plain numbers, in ng·h/mL.

Qu. What measured AUC goes with COCCCOc1cc(C[C@@H](C[C@H](N)[C@@H](O)C[C@H](C(=O)NCC(C)(C)C(N)=O)C(C)C)C(C)C)ccc1OC.COCCCOc1cc(C[C@@H](C[C@H](N)[C@@H](O)C[C@H](C(=O)NCC(C)(C)C(N)=O)C(C)C)C(C)C)ccc1OC.O=C(O)/C=C/C(=O)O [ALISKIREN FUMARATE] ?
Ans. 1190

* * *

- PROTOCOL DETAILS: Bioavailability (0-96h) of unlabeled aliskiren hemifumarate following oral administration of aliskiren hemifumarate at 100 mg.Kg-1 level in rat
- Type: ADME, organism-based
- MEASUREMENT SETUP: Albino HAN:WIST, plasma
METRIC NAME: bioavailability

Qu. What measured bioavailability goes with COCCCOc1cc(C[C@@H](C[C@H](N)[C@@H](O)C[C@H](C(=O)NCC(C)(C)C(N)=O)C(C)C)C(C)C)ccc1OC.COCCCOc1cc(C[C@@H](C[C@H](N)[C@@H](O)C[C@H](C(=O)NCC(C)(C)C(N)=O)C(C)C)C(C)C)ccc1OC.O=C(O)/C=C/C(=O)O [ALISKIREN FUMARATE] ?
Ans. 2.4%

* * *

- ASSAYED SYSTEM: CYP2D6 (Homo sapiens, UniProt P10635)
- Sequence (P10635 whole entry): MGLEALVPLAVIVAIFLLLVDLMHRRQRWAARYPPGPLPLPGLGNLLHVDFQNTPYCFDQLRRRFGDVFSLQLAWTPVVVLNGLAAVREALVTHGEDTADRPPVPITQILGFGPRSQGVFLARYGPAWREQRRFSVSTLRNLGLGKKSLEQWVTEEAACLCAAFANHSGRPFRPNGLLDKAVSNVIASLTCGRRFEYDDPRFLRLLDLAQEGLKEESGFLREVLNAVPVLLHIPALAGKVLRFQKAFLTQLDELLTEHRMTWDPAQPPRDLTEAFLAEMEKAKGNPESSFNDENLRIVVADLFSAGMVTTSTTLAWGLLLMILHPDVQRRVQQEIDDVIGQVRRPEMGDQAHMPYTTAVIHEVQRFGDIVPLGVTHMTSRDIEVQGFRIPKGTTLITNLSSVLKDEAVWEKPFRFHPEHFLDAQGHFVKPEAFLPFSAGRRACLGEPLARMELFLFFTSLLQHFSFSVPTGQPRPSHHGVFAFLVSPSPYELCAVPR
- PROTOCOL DETAILS: Inhibition of CYP2D6 in human liver microsomes from 10 healthy donors at 200 uM aliskiren (SPP100)
- Assay type: ADME, Microsome
- Parameters: conc 200 uM
- MEASUREMENT SETUP: probe bufuralol (1'-hydroxylation)
METRIC NAME: inhibition at 200 µM

Qu. What measured inhibition at 200 µM goes with COCCCOc1cc(C[C@@H](C[C@H](N)[C@@H](O)C[C@H](C(=O)NCC(C)(C)C(N)=O)C(C)C)C(C)C)ccc1OC ?
Ans. 32.9%

* * *

- PROTOCOL DETAILS: Cmax of aliskiren hemifumarate following 8 day once-daily dosing of SPP100B oral solution at 80 mg level studied on day 8 in men
- Assay type: ADME, organism-based
- MEASUREMENT SETUP: male, human, plasma
METRIC NAME: Cmax (ng/mL)
Give bare numbers, in ng/mL.

Qu. What measured Cmax goes with COCCCOc1cc(C[C@@H](C[C@H](N)[C@@H](O)C[C@H](C(=O)NCC(C)(C)C(N)=O)C(C)C)C(C)C)ccc1OC.COCCCOc1cc(C[C@@H](C[C@H](N)[C@@H](O)C[C@H](C(=O)NCC(C)(C)C(N)=O)C(C)C)C(C)C)ccc1OC.O=C(O)/C=C/C(=O)O [ALISKIREN FUMARATE] ?
Ans. 12.7

* * *

- PROTOCOL DETAILS: Cmax (0-96h) of unlabeled aliskiren hemifumarate following intravenous administration of aliskiren hemifumarate at 10 mg.Kg-1 level in rat
- Format: ADME, organism-based
- MEASUREMENT SETUP: Albino HAN:WIST, plasma
METRIC NAME: Cmax

Qu. What measured Cmax goes with COCCCOc1cc(C[C@@H](C[C@H](N)[C@@H](O)C[C@H](C(=O)NCC(C)(C)C(N)=O)C(C)C)C(C)C)ccc1OC.COCCCOc1cc(C[C@@H](C[C@H](N)[C@@H](O)C[C@H](C(=O)NCC(C)(C)C(N)=O)C(C)C)C(C)C)ccc1OC.O=C(O)/C=C/C(=O)O [ALISKIREN FUMARATE] ?
Ans. 29.2 µM

* * *

- PROTOCOL DETAILS: Tmax of aliskiren hemifumarate following 2 week oral dosing of aliskiren hemifumarate at 100 mg.Kg-1 level studied on day 1 in male Callithrix jacchus
- Format: ADME, organism-based
- MEASUREMENT SETUP: marmoset, plasma
METRIC NAME: Tmax
Write your answer as a measured quantity: the number, then the unit.

Qu. What measured Tmax goes with COCCCOc1cc(C[C@@H](C[C@H](N)[C@@H](O)C[C@H](C(=O)NCC(C)(C)C(N)=O)C(C)C)C(C)C)ccc1OC.COCCCOc1cc(C[C@@H](C[C@H](N)[C@@H](O)C[C@H](C(=O)NCC(C)(C)C(N)=O)C(C)C)C(C)C)ccc1OC.O=C(O)/C=C/C(=O)O [ALISKIREN FUMARATE] ?
Ans. 1 h

* * *

- ASSAYED SYSTEM: hERG (KCNH2) (Homo sapiens, UniProt Q12809)
- Sequence (Q12809 whole entry): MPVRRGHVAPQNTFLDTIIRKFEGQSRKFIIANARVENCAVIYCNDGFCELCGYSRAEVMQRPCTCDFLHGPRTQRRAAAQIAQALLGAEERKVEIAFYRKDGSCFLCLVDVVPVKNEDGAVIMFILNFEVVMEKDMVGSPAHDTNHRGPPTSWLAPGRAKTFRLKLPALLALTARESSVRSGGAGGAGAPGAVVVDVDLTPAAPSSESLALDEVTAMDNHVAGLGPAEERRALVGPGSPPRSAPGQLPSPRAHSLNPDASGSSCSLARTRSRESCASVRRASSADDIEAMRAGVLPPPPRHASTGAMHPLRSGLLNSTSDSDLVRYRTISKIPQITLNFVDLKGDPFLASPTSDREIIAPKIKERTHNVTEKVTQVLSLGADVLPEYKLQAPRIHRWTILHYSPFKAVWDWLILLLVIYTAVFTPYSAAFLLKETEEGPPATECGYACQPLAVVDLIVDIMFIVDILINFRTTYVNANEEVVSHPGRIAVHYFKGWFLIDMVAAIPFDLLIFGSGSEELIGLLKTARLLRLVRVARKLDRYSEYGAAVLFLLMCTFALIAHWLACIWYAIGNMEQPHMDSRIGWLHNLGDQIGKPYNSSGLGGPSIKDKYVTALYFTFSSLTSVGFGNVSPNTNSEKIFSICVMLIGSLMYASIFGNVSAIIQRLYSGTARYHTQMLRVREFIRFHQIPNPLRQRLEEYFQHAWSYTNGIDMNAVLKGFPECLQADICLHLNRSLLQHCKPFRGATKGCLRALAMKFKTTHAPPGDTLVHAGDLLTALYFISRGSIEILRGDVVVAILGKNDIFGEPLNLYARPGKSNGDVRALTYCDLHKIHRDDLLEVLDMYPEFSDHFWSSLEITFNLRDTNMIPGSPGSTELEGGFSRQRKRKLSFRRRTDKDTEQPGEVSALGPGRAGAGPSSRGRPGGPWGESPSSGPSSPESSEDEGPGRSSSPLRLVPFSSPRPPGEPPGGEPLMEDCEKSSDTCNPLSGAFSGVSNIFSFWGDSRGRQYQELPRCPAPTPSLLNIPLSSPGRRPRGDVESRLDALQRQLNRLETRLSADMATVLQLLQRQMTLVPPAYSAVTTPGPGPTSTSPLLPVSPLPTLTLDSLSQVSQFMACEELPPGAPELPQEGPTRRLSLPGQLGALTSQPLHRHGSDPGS
- PROTOCOL DETAILS: Effects of 1000 uM aliskiren hemifumarate on current through cloned hERG channel expressed in human embryonic kidney cell
- Assay type: cell-based
- Design: conc 1000 uM, dose level High
- MEASUREMENT SETUP: HEK293 cells that express cloned hERG channel, read-out: Inhibitory activity
METRIC NAME: inhibition at 1000 µM (%)
Give bare numbers, in %.

Qu. For the record COCCCOc1cc(C[C@@H](C[C@H](N)[C@@H](O)C[C@H](C(=O)NCC(C)(C)C(N)=O)C(C)C)C(C)C)ccc1OC.COCCCOc1cc(C[C@@H](C[C@H](N)[C@@H](O)C[C@H](C(=O)NCC(C)(C)C(N)=O)C(C)C)C(C)C)ccc1OC.O=C(O)/C=C/C(=O)O [ALISKIREN FUMARATE] , what value of inhibition at 1000 µM is listed for hERG (KCNH2) (Homo sapiens, UniProt Q12809)?
Ans. 32

* * *

- PROTOCOL DETAILS: AUC of aliskiren hemifumarate following single dosing of SPP100B oral solution at 40 mg level studied on day 1 in men
- Format: ADME, organism-based
- MEASUREMENT SETUP: male, human, plasma
METRIC NAME: AUC (ng·h/mL)
One number for each entry, in ng·h/mL.

Qu. What measured AUC goes with COCCCOc1cc(C[C@@H](C[C@H](N)[C@@H](O)C[C@H](C(=O)NCC(C)(C)C(N)=O)C(C)C)C(C)C)ccc1OC.COCCCOc1cc(C[C@@H](C[C@H](N)[C@@H](O)C[C@H](C(=O)NCC(C)(C)C(N)=O)C(C)C)C(C)C)ccc1OC.O=C(O)/C=C/C(=O)O [ALISKIREN FUMARATE] ?
Ans. 28.5

// data source = ChEMBL document CHEMBL3508693
